- tested on: cathepsin L (Homo sapiens)
- Construct: purchased Calbiochem 219402
- Sequence (P07711 114-288 limits assumed): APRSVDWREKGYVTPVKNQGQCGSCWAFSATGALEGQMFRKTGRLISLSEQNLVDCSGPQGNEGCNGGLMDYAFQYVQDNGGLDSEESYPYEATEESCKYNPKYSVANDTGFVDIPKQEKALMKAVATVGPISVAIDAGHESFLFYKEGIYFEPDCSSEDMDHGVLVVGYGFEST
- Sequence (P07711 292-333 limits assumed): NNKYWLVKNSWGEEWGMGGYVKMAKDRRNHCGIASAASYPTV
- assay procedure: Inhibition of cathepsin L
- Type: biochemical
- assay conditions: Table III; 1 uM; read-out: Cat L % I @ 1 uM
Square brackets hold non-standard residues; d marks the D form. Peptide text beside a SMILES is read from it. * marks the point of attachment. 2Thi = N[C@@H](Cc1cccs1)C(=O)O; Tos = Cc1ccc(S(=O)(=O)*)cc1; Ms = CS(=O)(=O)*
metric: inhibition at 1 µM (%)

# example entries with known answers
CC(C)C[C@@H](C=O)NC(=O)[C@@H](CC(C)C)NS(C)(=O)=O    96
Cc1ccc(S(=O)(=O)N[C@H](Cc2ccccc2)C(=O)N[C@H](C=O)Cc2ccccc2)cc1 [Compound 61] (Tos-[dF]-Phe-aldehyde)    100
CS(=O)(=O)N[C@@H](Cc1cccs1)C(=O)N[C@H](C=O)Cc1ccccc1 [Compound 99] (Ms-[2Thi]-Phe-aldehyde)    100
O=C[C@H](Cc1ccccc1)NC(=O)[C@H]1CCCN1S(=O)(=O)Cc1ccccc1    73
O=C[C@H](Cc1ccccc1)NC(=O)[C@@H](Cc1ccccc1)NS(=O)(=O)c1ccc2ccccc2c1    100

1 = CS(=O)(=O)N1CCC[C@@H]1C(=O)N[C@H](C=O)Cc1ccccc1 [Compound 101] (Ms-[dP]-Phe-aldehyde)
2 = CC(=O)Nc1ccc(S(=O)(=O)N2CCC[C@@H]2C(=O)N[C@H](C=O)Cc2ccccc2)cc1
I need your help: which of the pair 1 , 2 has higher inhibition at 1 µM? // respond with label for picked entry 1
(1: 100%, 2: 56%)

###

- tested on: α-chymotrypsin (Bos taurus, UniProt P00766)
- Construct: purchased Sigma Chem. Co. C-3142
- assay procedure: Inhibition of α-chymotrypsin
- Assay type: biochemical
- assay conditions: Table III; 10 uM; read-out: Chymotrypsin % I @ 10 uM
Square brackets hold non-standard residues; d marks the D form. Peptide text beside a SMILES is read from it. * marks the point of attachment. dPhg = N[C@@H](C(=O)O)c1ccccc1; Ms = CS(=O)(=O)*
metric: inhibition at 10 µM (%)

# example entries with known answers
CN1CCN(C)C1[C@H](Cc1ccccc1)NC(=O)[C@@H](COCc1ccccc1)NS(C)(=O)=O    1
O=C[C@H](Cc1ccccc1)NC(=O)[C@@H](COCc1ccccc1)NS(=O)(=O)N1CCOCC1    0

a = CC(C)(C)OC(=O)N1CCCC[C@H](NC(=O)[C@@H](COCc2ccccc2)N(C(=O)OC(C)(C)C)S(C)(=O)=O)C1=O
b = CS(=O)(=O)N[C@@H](C(=O)N[C@H](C=O)Cc1ccccc1)c1ccccc1 [Compound 76] (Ms-[dPhg]-Phe-aldehyde)
Could you tell me which of a and b has the lower inhibition at 10 µM reading? // respond with label for picked entry a
(a: 1%, b: 30%)

###

- tested on: thrombin (Homo sapiens, UniProt P00734)
- Construct: purchased Sigma Chem. Co. T-7009
- assay procedure: Inhibition of thrombin
- Assay type: biochemical
- assay conditions: Table III; 10 uM; read-out: Thrombin % I @ 10 uM
Square brackets hold non-standard residues; d marks the D form. Peptide text beside a SMILES is read from it. * marks the point of attachment. Tos = Cc1ccc(S(=O)(=O)*)cc1
metric: inhibition at 10 µM (%)

CS(=O)(=O)N[C@H](COCc1ccccc1)C(=O)N[C@H]1CCCCNC1=O    0

I = CC(=O)N[C@H](COCc1ccccc1)C(=O)N[C@H](C=O)Cc1ccccc1
II = Cc1ccc(S(=O)(=O)N2CCC[C@@H]2C(=O)N[C@H](C=O)Cc2ccccc2)cc1 [Compound 120] (Tos-[dP]-Phe-aldehyde)
I need your help: which of the pair I , II has higher inhibition at 10 µM? // respond with label for picked entry I
(I: 7%, II: 0%)

###

- tested on: Recombinant human calpain I (Homo sapiens)
- Construct: made in house
- Sequence (P07384 whole entry): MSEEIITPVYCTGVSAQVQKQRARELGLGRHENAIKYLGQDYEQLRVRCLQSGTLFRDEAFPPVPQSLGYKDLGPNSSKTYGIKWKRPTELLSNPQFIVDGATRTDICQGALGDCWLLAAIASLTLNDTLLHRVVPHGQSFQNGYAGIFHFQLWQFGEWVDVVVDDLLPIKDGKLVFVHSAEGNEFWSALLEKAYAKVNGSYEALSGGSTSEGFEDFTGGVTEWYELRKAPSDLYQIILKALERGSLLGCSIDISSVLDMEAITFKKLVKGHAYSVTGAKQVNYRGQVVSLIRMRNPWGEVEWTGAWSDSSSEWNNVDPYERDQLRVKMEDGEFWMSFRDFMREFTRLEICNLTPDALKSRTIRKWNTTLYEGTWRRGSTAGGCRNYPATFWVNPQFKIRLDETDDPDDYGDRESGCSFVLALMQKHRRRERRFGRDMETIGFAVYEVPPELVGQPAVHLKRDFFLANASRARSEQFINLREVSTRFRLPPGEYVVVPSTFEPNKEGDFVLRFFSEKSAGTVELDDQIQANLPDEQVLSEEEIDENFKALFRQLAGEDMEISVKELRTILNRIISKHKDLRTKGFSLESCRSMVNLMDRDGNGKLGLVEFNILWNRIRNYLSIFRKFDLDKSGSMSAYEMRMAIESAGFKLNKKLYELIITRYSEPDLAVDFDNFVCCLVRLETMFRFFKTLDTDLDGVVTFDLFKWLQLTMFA
- assay procedure: Inhibition of calpain I activity
- Assay type: biochemical
- assay conditions: Table III; 0.1 uM
Square brackets hold non-standard residues; d marks the D form. Peptide text beside a SMILES is read from it. * marks the point of attachment. Cbz = O=C(OCc1ccccc1)*; Ms = CS(=O)(=O)*
metric: inhibition at 0.1 µM (%)

# example entries with known answers
CS(=O)(=O)N1CCC[C@@H]1C(=O)N[C@H](C=O)Cc1ccccc1 [Compound 101] (Ms-[dP]-Phe-aldehyde)    84
CC(C)C[C@@H](NC(=O)OCc1ccccc1)C(=O)N[C@H](C=O)Cc1ccccc1 [Compound 85] (Cbz-[dL]-Phe-aldehyde)    44
CS(=O)(=O)N[C@H](COCc1ccccc1)C(=O)N[C@@H](Cc1ccccc1)C(O)CCc1ccccc1 (stereo partly drawn) [Compound 124]    20

A = CC(C)C[C@@H](C=O)NC(=O)[C@@H](CC(C)C)NS(C)(=O)=O [Compound 87]
B = CS(=O)(=O)N[C@H](COCc1ccccc1)C(=O)N[C@H](C=O)CCCCNC(=O)OCc1ccccc1 [Compound 92]
Could you tell me which of A and B has the lower inhibition at 0.1 µM reading? // respond with label for picked entry A
(A: 23%, B: 100%)

###

- tested on: cathepsin L (Homo sapiens)
- Construct: purchased Calbiochem 219402
- assay procedure: Inhibition of cathepsin L
- Format: biochemical
- assay conditions: Table III; 1 uM; read-out: Cat L % I @ 1 uM
Square brackets hold non-standard residues; d marks the D form. Peptide text beside a SMILES is read from it. * marks the point of attachment. d2Thi = N[C@H](Cc1cccs1)C(=O)O; dPhg = N[C@@H](C(=O)O)c1ccccc1; Ms = CS(=O)(=O)*
metric: inhibition at 1 µM (%)

CS(=O)(=O)N[C@H](Cc1cccs1)C(=O)N[C@H](C=O)Cc1ccccc1 [Compound 100] (Ms-[d2Thi]-Phe-aldehyde)    100
CC(C)C[C@@H](NS(C)(=O)=O)C(=O)N[C@H](C=O)Cc1ccccc1 [Compound 86] (Ms-[dL]-Phe-aldehyde)    100
Cc1ccc(S(=O)(=O)N2C[C@@H](C#N)C[C@@H]2C(=O)N[C@H](C=O)Cc2ccccc2)cc1 [Compound 129]    100
CS(=O)(=O)N[C@@H](C(=O)N[C@H](C=O)Cc1ccccc1)c1ccccc1 [Compound 76] (Ms-[dPhg]-Phe-aldehyde)    90
CS(=O)(=O)N[C@@H](C(=O)N[C@H](C=O)Cc1ccccc1)c1cccs1 [Compound 98]    100
CCS(=O)(=O)N[C@H](COCc1ccccc1)C(=O)N[C@H](C=O)Cc1ccccc1 [Compound 50]    98
CN(C)S(=O)(=O)N[C@H](COCc1ccccc1)C(=O)N[C@H](C=O)Cc1ccccc1 [Compound 47]    98
CN(Cc1ccccc1)C(=O)CC[C@@H](NS(C)(=O)=O)C(=O)N[C@H](C=O)Cc1ccccc1 [Compound 79]    93
